# Test system: platelets in whole blood
# assay-procedure: Platelet function testing with the Hemostasis Mechanism Analyzer (HMA): clumping, sticking, clotting in whole blood
# Format: cell-based, human
# experimental-conditions: Homo sapiens, Platelet; Dosage (mg/ml) 3.3; 0 dosage = 100; read-out: % clump time increase
Please provide measured activity at 3300 µg/mL for the entries that follow.
Give just the number in %; leave the unit off.

Note to self: activity at 3300 µg/mL of Cc1ncsc1C with platelets in whole blood was 176

Note to self: activity at 3300 µg/mL of O=C(O)CCCCC1CCSS1 (single isomer, unassigned) with platelets in whole blood was 102

Note to self: activity at 3300 µg/mL of OCc1c[nH]c2ccccc12 with platelets in whole blood was 81

Note to self: activity at 3300 µg/mL of OC(c1ccccc1)c1nnn[nH]1 (centres unmarked) with platelets in whole blood was 126

Note to self: activity at 3300 µg/mL of Cn1nnnc1S with platelets in whole blood was 124

====

# Tested on: platelets in whole blood
# assay-procedure: Platelet function testing with the Hemostasis Mechanism Analyzer (HMA): clumping, sticking, clotting in whole blood
# Assay type: cell-based, human
# experimental-conditions: Homo sapiens, Platelet; Dosage (mg/ml) 0.7; 0 dosage = 100; read-out: % clump time increase
Please provide measured activity at 700 µg/mL for the entries that follow.
Give just the number in %; leave the unit off.

Query OCc1c[nH]c2ccccc12 yields activity at 700 µg/mL of 95

Query Cc1cscn1 yields activity at 700 µg/mL of 115

Query OC(c1ccccc1)c1nnn[nH]1 (centres unmarked) yields activity at 700 µg/mL of 109

Query Cc1ncsc1CCO yields activity at 700 µg/mL of 108

Query Cc1ncsc1C yields activity at 700 µg/mL of 112

====

Please provide measured activity at 6700 µg/mL for the entries that follow.
# System: platelets in whole blood
# assay-procedure: Platelet function testing with the Hemostasis Mechanism Analyzer (HMA): clumping, sticking, clotting in whole blood
# Type: cell-based, human
# experimental-conditions: Homo sapiens, Platelet, read-out: % clump time increase
Give just the number in %; leave the unit off.

Query Cn1cc[nH]c1=S [Compound 78, 3-methyl-1H-imidazole-2-thione, reference compound] yields activity at 6700 µg/mL of 124

Query C1CCc2nnnn2CC1 yields activity at 6700 µg/mL of 130

Query Cc1ncsc1CCCl yields activity at 6700 µg/mL of 119

Query NC(=O)c1nn[nH]n1 [Compound 71, 2H-tetrazole-5-carboxamide] yields activity at 6700 µg/mL of 236

====

Please provide measured activity at 3300 µg/mL for the entries that follow.
# Tested on: platelets in whole blood
# assay-procedure: Platelet function testing with the Hemostasis Mechanism Analyzer (HMA): clumping, sticking, clotting in whole blood
# Format: cell-based, human
# experimental-conditions: Homo sapiens, Platelet; Dosage (mg/ml) 3.3; 0 dosage = 100; read-out: % clump time increase
Give just the number in %; leave the unit off.

Note to self: activity at 3300 µg/mL of O=C(O)Cc1nnn[nH]1 with platelets in whole blood was 240

Note to self: activity at 3300 µg/mL of COCCc1nn[nH]n1 with platelets in whole blood was 100

Note to self: activity at 3300 µg/mL of CCOC(=O)Cc1nnn[nH]1 [Compound 80, ethyl 2-(1H-tetrazol-5-yl)acetate] with platelets in whole blood was 107

Note to self: activity at 3300 µg/mL of CSc1nnn[nH]1 with platelets in whole blood was 167

Note to self: activity at 3300 µg/mL of Cc1ncsc1CCO with platelets in whole blood was 136

Note to self: activity at 3300 µg/mL of Cn1cncn1 with platelets in whole blood was 105

Note to self: activity at 3300 µg/mL of CCCCC[C@H](O)CC(=O)CCc1ccc(O)c(OC)c1 with platelets in whole blood was 107

These data points were gathered from patent US9918964B2.
